System: red blood cells (5% RBC suspension)
test_protocol: Test Example 2-1: in vitro hemolytic activity test (upper limit 50, 80, 100 or 200 μmol/L)
Assay type: cell-based
measurement_setup: hemolysis method 80 (upper concentration 80 μmol/L); 5% RBC suspension, 37° C., one hour; read-out: hemolysis IC50
pIC50: −log10 of the molar value.
# pIC50 listing for each entry below

# compound, pIC50
data = [
    ("C[C@@H]1[C@H](O)[C@@H](C)/C=C/C=C/C=C/C=C/C=C/C=C/C=C/[C@H](O[C@@H]2O[C@H](C)[C@@H](O)[C@H](N)[C@@H]2O)C[C@@H]2O[C@](O)(C[C@@H](O)C[C@@H](O)[C@H](O)CC[C@@H](O)C[C@@H](O)CC(=O)O[C@H]1C)C[C@H](O)[C@H]2NC(=O)N1CCCN(CCCN2CCOCC2)CC1", 4.10),
    ("C[C@@H]1[C@H](O)[C@@H](C)/C=C/C=C/C=C/C=C/C=C/C=C/C=C/[C@H](O[C@@H]2O[C@H](C)[C@@H](O)[C@H](N)[C@@H]2O)C[C@@H]2O[C@](O)(C[C@@H](O)C[C@@H](O)[C@H](O)CC[C@@H](O)C[C@@H](O)CC(=O)O[C@H]1C)C[C@H](O)[C@H]2NC(=O)N1CCCCC1c1ccccc1 (stereo partly drawn)", "< 4.10"),
    ("C[C@@H]1[C@H](O)[C@@H](C)/C=C/C=C/C=C/C=C/C=C/C=C/C=C/[C@H](O[C@@H]2O[C@H](C)[C@@H](O)[C@H](N)[C@@H]2O)C[C@@H]2O[C@](O)(C[C@@H](O)C[C@@H](O)[C@H](O)CC[C@@H](O)C[C@@H](O)CC(=O)O[C@H]1C)C[C@H](O)[C@H]2NC(=O)N(CCO)CCO", "< 4.10"),
]
